# key: entry, value: protein stability index
- assay: protein stability index of a GFP-peptide fusion (GPS, HEK-293T) (PSI 1-6); higher = more stable;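 note: 24-mer peptide tiles fused after GFP, lentivirally expressed, FACS-sorted into six equal bins by GFP/DsRed ratio, decoded by Illumina sequencing, PSI is the read-weighted mean bin number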
- measurement_setup: treatment: MLN4924 1 uM, 8 h; c terminus: a fixed tail appended
Lab note: jot down the number only; don't add units.

Name the recorded protein stability index for PVQGSSEDNLSLVCLPRSEDDDCD [DRICH1] .
5.53

Entry FIIGELHPDDRPKLNKPPETLITT [CYB5A] please
2.91

Same thing, different sequence: PERLCSGPGIVGNVLVDPSARIGQ [GMPPB]
3.89

And for GPFGGFFASGFKRAFKIKDFANTI [CDS1] ?
2.44

Queued: PGVQAPEDLEWERYRGRGSEEYRA [CHGB]
5.18

Now give it for RIFKLSRHSKGLQILGQTLKASMR [KCNA1] too.
2.65

---

- assay: protein stability index of a GFP-peptide fusion (GPS, HEK-293T) (PSI 1-6); higher = more stable
- measurement_setup: treatment: MLN4924 1 uM, 8 h; c terminus: a fixed tail appended
value_kind: protein stability index
Simply state the number, no unit and no words.

Past entries and their recorded results:
QLQAARNEYLLNLVATNAHLDHYY [FCHSD1]; 2.55
TLDPNGKTCSRVDHCAQQDHGCEQ [MATN2]; 4.16
VQRHNSFSPNSPQFNVSGPGLLEE [NECAB1]; 4.33
KRKTFNKVLGHVNNILISAVLPTA [GDAP1]; 2.42

Fill blank: measured protein stability index of the sequence KCLYYLYATLDLNAVKYVSNIKFC [PDS5B] is ____.
2.75

Same again, this time with SCEVSEENCERREAFWAEWKDLTL [TCAP]
4.21

Another sequence: CSSKRSSYPVMGFEFQVRVCDSCY [WDFY1]
2.32

Can you check MADGNEDLRADDLPGPAFESYESM [KLHDC2] next?
5.26

Query KLSPLRLSVSNNQEPDFIDDIEEK [KMT2E] next
5.06

---

- assay: protein stability index of a GFP-peptide fusion (GPS, HEK-293T) (PSI 1-6); higher = more stable
- measurement_setup: treatment: MLN4924 1 uM, 8 h; c terminus: a fixed tail appended
Each record's protein stability index is compared with LOW: < 3; MEDIUM: ≥ 3 and < 5; HIGH: ≥ 5 to give its class.

FGASAAGGLSPVTNLTVTMDQLQG [CDC25A]; MEDIUM

Consider the record given below.
Which of the defined bands does the recorded protein stability index of GKMVEEVDGRATQKLIVNLKPEKS [PTPRD] sit within?
MEDIUM

---

- assay: protein stability index of a GFP-peptide fusion (GPS, HEK-293T) (PSI 1-6); higher = more stable
- measurement_setup: treatment: MLN4924 1 uM, 8 h; c terminus: a fixed tail appended
The following sequences are listed with their measured protein stability index values.
Give the figure by itself; no unit, no explanation.

Please review the entries below; each comes with its answer.
QPPPQSSEGLVGALMHVMQKRSRA [WAS]; 4.24
TGGLLPIKRTIRVLDVNNQSFREQ [NET1]; 3.03
QDFPVKKRKKLSTWKQELLKLMDR [ZNF75A]; 2.53
SNFETYPENDWDTAAPVPQKDLEI [PRKX]; 5.15
YGLQGGMAFLDKRLQVKEHQHEEI [ATL3]; 3.39
HIKLHSGEKPFKCHLCNYACRRRD [IKZF1]; 2.93
TFVSTCQAIDATVAAELLNHLLES [HES6]; 2.48
LGWGPTALRDVPFSALYWFNYELV [SLC25A39]; 2.61
RSWMFRRGPLNSDRSDYFAAWGAR [TRIM43]; 2.62
VASMVLGECRQMSSSSQIGNDSFQ [CLCN6]; 2.67

Request the reported protein stability index associated with DGEILFSLLQKVSPVAHKHLSRQK [TBC1D10A]
2.48

Another: TLGREVMSPLQAMSSYTVAGRNVL [NLN]
3.01

Continue with IASFIRGPNPSKLIQQFLTLRPDQ [CDS2]
2.33

The origin of these recorded values is the supplement of paper PMC10567573.
